# assay.target: human TTK (Homo sapiens, UniProt P33981)
# Construct: amino terminal GST fusion of full length human TTK; purchased Invitrogen
# Sequence (P33981 1-857): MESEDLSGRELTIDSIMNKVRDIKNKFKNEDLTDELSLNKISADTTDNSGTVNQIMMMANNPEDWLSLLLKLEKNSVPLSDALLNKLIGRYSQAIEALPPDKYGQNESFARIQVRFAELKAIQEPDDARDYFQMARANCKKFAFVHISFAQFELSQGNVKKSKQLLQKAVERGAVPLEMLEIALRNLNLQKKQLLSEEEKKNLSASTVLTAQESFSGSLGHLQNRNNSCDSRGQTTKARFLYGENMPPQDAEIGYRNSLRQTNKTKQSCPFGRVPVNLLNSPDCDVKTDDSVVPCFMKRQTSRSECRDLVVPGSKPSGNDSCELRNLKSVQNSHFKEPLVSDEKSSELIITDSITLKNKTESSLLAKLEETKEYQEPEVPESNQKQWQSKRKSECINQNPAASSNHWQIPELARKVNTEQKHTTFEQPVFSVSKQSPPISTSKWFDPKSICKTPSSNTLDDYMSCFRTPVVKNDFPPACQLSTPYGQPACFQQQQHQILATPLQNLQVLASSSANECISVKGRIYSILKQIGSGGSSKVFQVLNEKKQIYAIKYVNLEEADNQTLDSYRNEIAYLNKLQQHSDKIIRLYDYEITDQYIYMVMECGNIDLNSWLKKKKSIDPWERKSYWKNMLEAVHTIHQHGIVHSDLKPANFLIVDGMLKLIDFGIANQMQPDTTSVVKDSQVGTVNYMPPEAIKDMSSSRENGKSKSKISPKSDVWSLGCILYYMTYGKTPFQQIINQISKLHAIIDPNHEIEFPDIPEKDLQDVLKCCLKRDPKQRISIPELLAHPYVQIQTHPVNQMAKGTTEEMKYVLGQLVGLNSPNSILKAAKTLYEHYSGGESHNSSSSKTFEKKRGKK
# run.description: TTK inhibition assay (indirect ELISA)
# Assay type: biochemical
# condition.details: read-out: TTK IC50 Range
measure: IC50

Considering O=C(N[C@H](c1ccccn1)C1CCCC1)c1ccc2[nH]nc(-c3ccc(N4CC(N5CCOCC5)C4)cc3)c2c1 [Example A314] , its IC50 with human TTK (Homo sapiens, UniProt P33981) was recorded as < 100 nM

Considering CN1C2CCC1CC(Oc1ccc(-c3n[nH]c4ccc(C(=O)NC(c5ccccn5)C5CCCC5)cc34)cc1)C2 (stereo not drawn) [Example A398] , its IC50 with human TTK (Homo sapiens, UniProt P33981) was recorded as < 100 nM

Considering CN1[C@@H]2CCC[C@H]1C[C@@H](Oc1ccc(-c3n[nH]c4ccc(C(=O)NC(c5ccccc5)C5CC5)cc34)cc1)C2 (stereo partly drawn) [Example A390] , its IC50 with human TTK (Homo sapiens, UniProt P33981) was recorded as < 100 nM

Considering CC(C)[C@@H](NC(=O)c1ccc2[nH]nc(-c3ccc(N4CCN(C5COC5)CC4)cc3)c2c1)c1ccccc1Cl [Example A412] , its IC50 with human TTK (Homo sapiens, UniProt P33981) was recorded as < 100 nM

Considering CC(C)[C@H](NC(=O)c1ccc2[nH]nc(-c3ccc(OC4CN(C5COC5)C4)cc3)c2c1)c1ccccc1Cl [Example A296] , its IC50 with human TTK (Homo sapiens, UniProt P33981) was recorded as < 100 nM

Considering CC(C)C[C@H](NC(=O)c1ccc2[nH]nc(-c3ccc(N4C5CCC4COC5)cc3)c2c1)c1ccccc1Cl [Example A413] , its IC50 with human TTK (Homo sapiens, UniProt P33981) was recorded as < 100 nM

Considering CN1CCC(Oc2ccc(-c3n[nH]c4ccc(C(=O)NCC5(c6ccsc6)CCCCC5)cc34)cc2)CC1 [Example A472] , its IC50 with human TTK (Homo sapiens, UniProt P33981) was recorded as < 100 nM

Considering CN1[C@@H]2CC[C@H]1C[C@@H](Oc1ccc(-c3n[nH]c4ccc(C(=O)NC(c5ccccc5Cl)C5CC5)cc34)cc1)C2 (stereo partly drawn) [Example A280] , its IC50 with human TTK (Homo sapiens, UniProt P33981) was recorded as < 100 nM

Considering CC(C)C[C@H](NC(=O)c1ccc2[nH]nc(-c3ccc(N4[C@@H]5CC[C@H]4COC5)cc3)c2c1)c1ccccc1F [Example A519] , its IC50 with human TTK (Homo sapiens, UniProt P33981) was recorded as < 100 nM

Considering CC(C)[C@H](NC(=O)c1ccc2[nH]nc(-c3ccc(OC4CC5CCC(C4)N5C=O)nc3)c2c1)c1ccccc1Cl (stereo partly drawn) [Example A354] , its IC50 with human TTK (Homo sapiens, UniProt P33981) was recorded as < 100 nM

Considering O=C(Nc1ccc2[nH]nc(-c3ccc(CN4CCOCC4)cc3)c2c1)C1CCCc2ccccc21 (stereo not drawn) [Example A23] , its IC50 with human TTK (Homo sapiens, UniProt P33981) was recorded as 100 to 500 nM

Considering CC1(C)CC(=O)c2cc(-c3n[nH]c4ccc(C(=O)NCC5(N6CCOCC6)CCCCC5)cc34)ccc2O1 [Example A490] , its IC50 with human TTK (Homo sapiens, UniProt P33981) was recorded as 100 to 500 nM

Considering O=C(N[C@H](c1ncccn1)C1CCCC1)c1ccc2[nH]nc(-c3ccc(N4C5CCC4CC(O)C5)cc3)c2c1 (stereo partly drawn) [Example A367] , its IC50 with human TTK (Homo sapiens, UniProt P33981) was recorded as < 100 nM

Considering O=C(NCC1(N2CCOCC2)CCCCC1)c1ccc2[nH]nc(-c3ccc(N4[C@@H]5CC[C@H]4COC5)cc3)c2c1 [Example A501] , its IC50 with human TTK (Homo sapiens, UniProt P33981) was recorded as < 100 nM

Considering CCC[C@H](NC(=O)c1ccc2[nH]nc(-c3ccc(OC4CC5CCC(C4)N5C=O)cc3)c2c1)c1ccccc1 (stereo partly drawn) [Example A343] , its IC50 with human TTK (Homo sapiens, UniProt P33981) was recorded as < 100 nM

Considering CN1[C@@H]2CCC[C@H]1C[C@@H](Oc1ccc(-c3n[nH]c4ccc(C(=O)NC(c5ccccn5)C5CCCC5)cc34)cc1)C2 (stereo partly drawn) [Example A391] , its IC50 with human TTK (Homo sapiens, UniProt P33981) was recorded as < 100 nM

Considering CCC(CC)(CNC(=O)c1ccc2[nH]nc(-c3ccc(OC4CCN(C5COC5)CC4)cc3)c2c1)c1ccccc1 [Example A439] , its IC50 with human TTK (Homo sapiens, UniProt P33981) was recorded as < 100 nM

Considering O=C(NCC1(N2CCOCC2)CCCCC1)c1ccc2[nH]nc(-c3ccc(OC4CCN(C5COC5)CC4)cc3)c2c1 [Example A506] , its IC50 with human TTK (Homo sapiens, UniProt P33981) was recorded as < 100 nM

Considering CCC(CC)(CNC(=O)c1ccc2[nH]nc(-c3ccc(OC4CCN(C[C@@H](C)O)CC4)cc3)c2c1)c1ccccc1 [Example A443] , its IC50 with human TTK (Homo sapiens, UniProt P33981) was recorded as < 100 nM

Considering CN1CCC2(CC1)CC(=O)c1cc(-c3n[nH]c4ccc(C(=O)N[C@H](c5ccccn5)C5CC5)cc34)ccc1O2 [Example A257] , its IC50 with human TTK (Homo sapiens, UniProt P33981) was recorded as < 100 nM

Considering O=CN1CCC(Oc2ccc(-c3n[nH]c4ccc(C(=O)NCC5(N6CCOCC6)CCCCC5)cc34)cc2)CC1 [Example A504] , its IC50 with human TTK (Homo sapiens, UniProt P33981) was recorded as < 100 nM

Considering O=C(NCC1(N2CCOCC2)CCCCC1)c1ccc2[nH]nc(-c3ccc(N4CCOCC4)cc3)c2c1 [Example A447] , its IC50 with human TTK (Homo sapiens, UniProt P33981) was recorded as < 100 nM

Considering O=C(NC(c1ccccc1)C1CC1)c1ccc2[nH]nc(-c3ccc(N[C@H]4CC[C@H](O)CC4)cc3)c2c1 (stereo partly drawn) [Example A106] , its IC50 with human TTK (Homo sapiens, UniProt P33981) was recorded as < 100 nM

Considering COc1ccc(NC(=O)Nc2ccc3[nH]nc(-c4ccc(OC5CCN(C)CC5)cc4)c3c2)c(C)c1 [Example A81] , its IC50 with human TTK (Homo sapiens, UniProt P33981) was recorded as 100 to 500 nM

Considering O=C(NC(c1ccccn1)C1CCCC1)c1ccc2[nH]nc(-c3ccc(N4CCN(C5COC5)CC4)cc3)c2c1 (stereo not drawn) [Example A402] , its IC50 with human TTK (Homo sapiens, UniProt P33981) was recorded as < 100 nM

Considering CCC(CC)(CNC(=O)c1ccc2[nH]nc(-c3ccc(N4CCOCC4)cc3)c2c1)N1CCOCC1 [Example A463] , its IC50 with human TTK (Homo sapiens, UniProt P33981) was recorded as < 100 nM

Considering CC(C)[C@@H](NC(=O)c1ccc2[nH]nc(-c3ccc(OC4CCN(C)CC4)cc3)c2c1)c1ccccc1Cl [Example A274] , its IC50 with human TTK (Homo sapiens, UniProt P33981) was recorded as < 100 nM
